B1: HDV Ribozyme (parent)
chain: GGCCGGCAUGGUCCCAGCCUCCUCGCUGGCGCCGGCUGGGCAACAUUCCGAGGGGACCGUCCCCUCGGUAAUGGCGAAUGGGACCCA

# Variants of: B1
# experiment-description: self-cleavage, relative activity (ratio to wild type); higher = more cleavage; co-transcriptional
Entries are grouped by self-cleavage into these classes: low band: < 0.1; middle band: ≥ 0.1 and < 0.4; high band: ≥ 0.4

For orientation, consider the following solved cases.
C4U G5U: middle band
C7A U27G: high band
A51U C57A: high band
G55C C85G: high band
C32G G81A: low band
C24G G59U: middle band
G82C A87G: middle band
G40A A45U: high band

IN: For C14G A87C , which self-cleavage bin applies?
OUT: high band

IN: Dear colleague, I would appreciate it if you could identify the bin for C61U A71G and reply at your convenience.
OUT: high band

IN: Determine which band this variant sits in: G11U U46A
OUT: middle band
